Reference source: patent US20110190503A1

Tested System: recombinant human LTA4 hydrolase (rhLTA4H) (Homo sapiens, UniProt P09960)
Construct: made in house; host or cells: Spodoptera frugiperda (Sf-9) cells, recombinant baculovirus (pFastBac1)
Sequence (P09960 whole entry): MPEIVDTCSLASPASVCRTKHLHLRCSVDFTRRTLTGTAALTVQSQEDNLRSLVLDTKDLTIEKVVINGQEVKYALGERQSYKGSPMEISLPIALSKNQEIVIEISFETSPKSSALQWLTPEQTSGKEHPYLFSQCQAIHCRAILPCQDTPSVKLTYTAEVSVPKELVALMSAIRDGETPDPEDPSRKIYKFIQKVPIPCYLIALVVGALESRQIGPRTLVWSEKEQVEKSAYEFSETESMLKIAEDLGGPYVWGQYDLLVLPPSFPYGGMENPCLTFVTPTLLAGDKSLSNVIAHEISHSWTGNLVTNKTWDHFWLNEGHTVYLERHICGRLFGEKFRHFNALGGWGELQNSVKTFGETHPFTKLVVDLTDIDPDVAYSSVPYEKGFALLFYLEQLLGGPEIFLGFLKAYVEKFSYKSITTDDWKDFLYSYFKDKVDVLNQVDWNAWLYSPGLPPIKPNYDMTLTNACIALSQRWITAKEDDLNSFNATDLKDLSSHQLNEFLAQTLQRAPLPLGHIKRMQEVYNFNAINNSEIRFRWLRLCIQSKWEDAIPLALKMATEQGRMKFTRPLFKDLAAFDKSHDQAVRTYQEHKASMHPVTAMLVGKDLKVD
Measurement Protocol: Recombinant human LTA4 hydrolase assay for LTA4 hydrolase inhibitor activity
Type: biochemical
Condition Notes: rhLTA4H, LTA4 substrate, LTB4 by immunoassay; single determination or average; read-out: IC50
Experimental Endpoint: IC50 (nM)

INPUT: Entry under review: CCCCN(CC)CCc1ccc(Oc2nc3ncc(C)cc3s2)cc1 [Example 178] . Reported IC50?
OUTPUT: 11

INPUT: Entry under review: NC(=O)C1CCN(CCOc2ccc(Oc3nc4nccnc4s3)cc2)CC1 [Example 26] . Reported IC50?
OUTPUT: 200

INPUT: Entry under review: OC1(c2cccc(C(F)(F)F)c2)CCN(CCOc2ccc(Oc3nc4cccnc4s3)cc2)CC1 [Example 37] . Reported IC50?
OUTPUT: 160

a = O=C(c1cccs1)N1CCN(Cc2ccc(Oc3nc4ncc(Cl)cc4s3)cc2)CC1 [Example 187]
b = Cc1ccc(SC2CCN(CCOc3ccc(Oc4nc5ncccc5s4)cc3)CC2)cc1 [Example 255]
INPUT: Field: lower recorded IC50 (choose a or b ) Identify your pick by its label.
OUTPUT: b
(b: 71 nM, a: 290 nM)

a = O=C(O)CCNCc1ccc(Oc2nc3ncccc3s2)cc1 [Example 275]
b = c1cc(C2CCN(Cc3ccc(Oc4nc5cnccc5s4)cc3)CC2)ccn1 [Example 190]
INPUT: Between the entries labelled a and b , which has a larger IC50 value on record? Identify your pick by its label.
OUTPUT: b
(b: 455 nM, a: 47 nM)

a = NC(=O)N1[C@@H]2CC[C@H]1C[C@H](NCc1ccc(Oc3nc4cccnc4s3)cc1)C2 [Example 201]
b = O=C1CCCN1C1CCN(CCOc2ccc(Oc3nc4ncccc4s3)cc2)CC1 [Example 32]
INPUT: Field: lower recorded IC50 (choose a or b ) Identify your pick by its label.
OUTPUT: b

a = c1cc2nc(Oc3ccc(CN4CCCCC4)cc3)sc2cn1 [Example 114]
b = NC(=O)N1C[C@H]2CC[C@@H](C1)N2CCOc1ccc(Oc2nc3ncccc3s2)cc1 [Example 211]
INPUT: Between the entries labelled a and b , which has a larger IC50 value on record? Identify your pick by its label.
OUTPUT: a
